Target: Collagenase ColH (Hathewaya histolytica, UniProt Q46085)
Sequence (Q46085 whole entry): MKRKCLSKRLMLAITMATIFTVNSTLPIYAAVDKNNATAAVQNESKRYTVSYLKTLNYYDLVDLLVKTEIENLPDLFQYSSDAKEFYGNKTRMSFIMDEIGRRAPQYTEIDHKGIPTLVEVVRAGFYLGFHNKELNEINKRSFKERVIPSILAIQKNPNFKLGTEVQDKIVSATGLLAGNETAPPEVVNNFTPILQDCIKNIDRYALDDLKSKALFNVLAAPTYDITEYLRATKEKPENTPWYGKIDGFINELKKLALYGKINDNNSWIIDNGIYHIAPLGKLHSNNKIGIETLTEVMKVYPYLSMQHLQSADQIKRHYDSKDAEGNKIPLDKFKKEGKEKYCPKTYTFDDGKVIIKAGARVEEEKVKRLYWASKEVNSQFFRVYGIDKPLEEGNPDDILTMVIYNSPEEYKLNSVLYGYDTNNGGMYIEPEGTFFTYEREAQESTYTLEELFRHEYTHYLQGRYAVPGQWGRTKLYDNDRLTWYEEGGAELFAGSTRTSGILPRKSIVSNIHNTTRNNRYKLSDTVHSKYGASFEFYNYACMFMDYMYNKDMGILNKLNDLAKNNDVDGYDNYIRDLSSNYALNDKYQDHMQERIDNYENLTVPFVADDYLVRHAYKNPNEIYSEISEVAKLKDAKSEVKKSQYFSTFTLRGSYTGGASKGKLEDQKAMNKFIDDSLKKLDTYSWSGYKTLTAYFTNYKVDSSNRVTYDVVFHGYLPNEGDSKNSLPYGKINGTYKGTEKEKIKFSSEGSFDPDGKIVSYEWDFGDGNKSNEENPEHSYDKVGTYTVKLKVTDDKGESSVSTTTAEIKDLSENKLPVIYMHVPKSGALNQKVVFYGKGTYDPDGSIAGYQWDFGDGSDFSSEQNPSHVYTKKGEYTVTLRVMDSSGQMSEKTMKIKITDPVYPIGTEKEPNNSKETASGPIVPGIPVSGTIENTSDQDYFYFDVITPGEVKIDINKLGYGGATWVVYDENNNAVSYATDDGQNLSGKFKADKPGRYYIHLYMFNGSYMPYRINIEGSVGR
ASSAY METRIC: pIC50
One number for each entry, as −log10 of the molar value.

Request: Give the reported pIC50 for this compound. CC(=O)c1ccc(NC(=O)CS)cc1
Result: 7.77

---

Biological target: Elastase (Pseudomonas aeruginosa (strain ATCC 15692 / PAO1 / 1C / PRS 101 / LMG12228))
Sequence (P14756 whole entry): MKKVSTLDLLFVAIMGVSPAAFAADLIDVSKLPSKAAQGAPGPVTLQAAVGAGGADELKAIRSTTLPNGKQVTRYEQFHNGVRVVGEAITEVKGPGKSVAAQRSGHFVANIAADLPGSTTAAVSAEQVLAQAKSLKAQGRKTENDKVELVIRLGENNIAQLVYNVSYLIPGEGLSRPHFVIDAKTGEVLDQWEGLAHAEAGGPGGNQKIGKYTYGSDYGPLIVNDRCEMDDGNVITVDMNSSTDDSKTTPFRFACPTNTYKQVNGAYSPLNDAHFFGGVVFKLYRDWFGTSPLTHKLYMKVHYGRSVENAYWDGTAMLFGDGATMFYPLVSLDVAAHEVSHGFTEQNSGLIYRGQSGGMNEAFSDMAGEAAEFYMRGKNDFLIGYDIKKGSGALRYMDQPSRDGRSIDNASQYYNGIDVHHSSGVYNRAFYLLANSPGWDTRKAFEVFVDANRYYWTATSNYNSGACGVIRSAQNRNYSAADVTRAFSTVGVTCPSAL
Assay: Inhibition of Pseudomonas aeruginosa LasB using aminobenzoyl-Ala-Gly-Leu-Ala-p-nitro-benzyl-amide as fluorogenic substrate by fluorimetric assay
ASSAY METRIC: pKi
One number for each entry, as −log10 of the molar value.

Request: Indicate the recorded pKi value for this compound: NC(=O)[C@H](Cc1ccc(O)cc1)NC(=O)[C@H](Cc1c[nH]c2ccccc12)NC(=O)CS
Result: 7.39
